Biological target: GFRα1-RET (Homo sapiens, UniProt P56159)
Sequence (P56159 25-429 limits assumed): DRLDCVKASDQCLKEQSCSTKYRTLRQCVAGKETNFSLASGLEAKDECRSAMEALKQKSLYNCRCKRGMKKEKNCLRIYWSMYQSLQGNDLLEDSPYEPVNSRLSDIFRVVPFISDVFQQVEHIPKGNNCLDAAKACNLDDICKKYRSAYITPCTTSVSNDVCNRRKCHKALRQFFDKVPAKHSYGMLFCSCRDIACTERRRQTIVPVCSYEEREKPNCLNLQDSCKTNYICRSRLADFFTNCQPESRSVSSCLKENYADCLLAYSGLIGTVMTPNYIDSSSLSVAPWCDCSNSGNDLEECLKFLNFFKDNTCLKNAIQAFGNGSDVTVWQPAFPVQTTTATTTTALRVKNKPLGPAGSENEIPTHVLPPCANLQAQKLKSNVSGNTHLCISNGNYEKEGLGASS
Assay: Elk1 reporter-gene (luciferase) assay in cells expressing GFRα1-RET
Conditions: MG87 murine fibroblasts stably transfected with PathDetect Elk-1, GFRα1 and RET, 6 concentrations, agonist/activator activity
assay.endpoint: EC50

Examples with their reported EC50 follow.
compound="CCCN(C)S(=O)(=O)c1ccc(OC(F)(F)F)c(N2[C@@H]3CC[C@H]2CN(C(=O)c2ccc(F)cc2Cl)C3)c1 [compound 027]" target_under_test="GFRα1-RET (Homo sapiens, UniProt P56159)" result="1 to 10 µM"
compound="COc1ccc(S(=O)(=O)N(C)C(C)(C)C)cc1N1[C@@H]2CC[C@H]1CN(C(=O)c1cc(F)c(F)cc1Cl)C2 [compound 054]" target_under_test="GFRα1-RET (Homo sapiens, UniProt P56159)" result="1 to 10 µM"
compound="CN(C(C)(C)C)S(=O)(=O)c1cc(Cl)c(O)c(N2[C@@H]3CC[C@H]2CN(C(=O)c2ccc(F)cc2Cl)C3)c1 [compound 107]" target_under_test="GFRα1-RET (Homo sapiens, UniProt P56159)" result="< 1 µM"
compound="COc1ccc(S(=O)(=O)N2CCC(Cc3ccccc3)CC2)cc1N1C2CCC1CN(C(=O)c1ccc(F)cc1Cl)C2 (racemic) [compound 025]" target_under_test="GFRα1-RET (Homo sapiens, UniProt P56159)" result="1 to 10 µM"
compound="CC(C)NS(=O)(=O)c1cc(Cl)c(O)c(N2[C@@H]3CC[C@H]2CN(C(=O)c2ccc(F)cc2Cl)C3)c1 [compound 100]" target_under_test="GFRα1-RET (Homo sapiens, UniProt P56159)" result="< 1 µM"

Consider now this further compound.
# input Endpoint output: EC50 of CC(C)(C)NS(=O)(=O)c1cc(N2[C@@H]3CC[C@H]2CN(C(=O)c2ccc(F)cc2Cl)C3)c(O)c(C(F)(F)F)c1 [compound 089] . Value?
# output 1 to 10 µM

====

Molecular target: GFRα1-RET (Homo sapiens)
Assay: Elk1 reporter-gene (luciferase) assay in cells expressing GFRα1-RET
Conditions: MG87 murine fibroblasts stably transfected with PathDetect Elk-1, GFRα1 and RET, 6 concentrations, agonist/activator activity
Method: For ECso determination, a dose-response test was performed using 6 concentrations of each tested compound. Dose-response curves were fitted using the sigmoidal dose-response (variable slope) analysis in GraphPad Prism program (Graph Pad Inc) and ECso of agonist/activator activity was calculated. Dose-response experiments were all performed in duplicate, two times independently.
pEC50: −log10 of the molar value.
Examples of compounds with documented pEC50 follow.

compound=O=C(c1ccc(F)cc1Cl)N1C[C@H]2CC[C@@H](C1)N2c1cc(S(=O)(=O)N2CCC(c3ccccc3)CC2)cc(C(F)(F)F)c1O target_under_test="GFRα1-RET (Homo sapiens)" assay_endpoint=pEC50 result="> 6.00"
compound="COc1ccc(S(=O)(=O)NC(C)(C)C)cc1N1CCN(C(=O)c2ccc(F)cc2Cl)CC1C (racemic)" target_under_test="GFRα1-RET (Homo sapiens)" assay_endpoint=pEC50 result="4.30 to 5.00"
compound=Cc1c(Cl)cc(S(=O)(=O)N(C)C(C)(C)C)cc1N1[C@@H]2CC[C@H]1CN(C(=O)c1ccc(F)cc1Cl)C2 target_under_test="GFRα1-RET (Homo sapiens)" assay_endpoint=pEC50 result="> 6.00"
compound=O=C(c1ccc(F)cc1Cl)N1C[C@H]2CC[C@@H](C1)N2c1cc(S(=O)(=O)N2CCC(c3ccccc3)CC2)ccc1OCCO target_under_test="GFRα1-RET (Homo sapiens)" assay_endpoint=pEC50 result="> 6.00"

Consider now this further compound.
# input Endpoint output: pEC50 of "O=C(c1ccc(F)cc1Cl)N1C[C@H]2CC[C@@H](C1)N2c1cc(S(=O)(=O)N2CCN(CCc3ccc(F)cc3)CC2)cc2c1OCC2" . Value?
# output > 6.00

====

Target: GFRα1-RET (Homo sapiens, UniProt P56159)
Experiment: Elk1 reporter-gene (luciferase) assay in cells expressing GFRα1-RET
Settings: MG87 murine fibroblasts stably transfected with PathDetect Elk-1, GFRα1 and RET, 6 concentrations, agonist/activator activity
pEC50: −log10 of the molar value.
assay.endpoint: pEC50

compound="N#Cc1ccc(S(=O)(=O)N2CCC(c3ccccc3)CC2)cc1N1[C@@H]2CC[C@H]1CN(C(=O)c1ccc(F)cc1Cl)C2 [compound 125]" result="> 6.00"

# input Checklist item: pEC50 tested on GFRα1-RET (Homo sapiens, UniProt P56159), entry CN(C(C)(C)C)S(=O)(=O)c1cc(Cl)c(OCc2ccccc2)c(N2[C@@H]3CC[C@H]2CN(C(=O)c2ccc(F)cc2Cl)C3)c1 [compound 136] , value?
# output > 6.00

# input Field entry: O=C(c1ccc(F)cc1Cl)N1C[C@H]2CC[C@@H](C1)N2c1cc(S(=O)(=O)N2CCC(c3ccccc3)CC2)ccc1C1CC1 [compound 080]
# output > 6.00

# input Field entry: CCN(CC)S(=O)(=O)c1cnc(O)c(N2[C@@H]3CC[C@H]2CN(C(=O)c2ccc(F)cc2Cl)C3)c1 [compound 035]
# output 4.30 to 5.00

# input Field entry: COc1ccc(S(=O)(=O)N2CCN(CC(C)c3ccc(F)cc3)CC2)cc1N1C2CCC1CN(C(=O)c1ccc(F)cc1Cl)C2 (racemic) [compound 045]
# output > 6.00

# input Field entry: COC(=O)c1cccc(C2CCN(S(=O)(=O)c3ccc(OC)c(N4[C@@H]5CC[C@H]4CN(C(=O)c4ccc(F)cc4Cl)C5)c3)CC2)c1 [compound 041]
# output > 6.00

====

Target: GFRα1-RET (Homo sapiens)
Sequence (P56159 25-429 limits assumed): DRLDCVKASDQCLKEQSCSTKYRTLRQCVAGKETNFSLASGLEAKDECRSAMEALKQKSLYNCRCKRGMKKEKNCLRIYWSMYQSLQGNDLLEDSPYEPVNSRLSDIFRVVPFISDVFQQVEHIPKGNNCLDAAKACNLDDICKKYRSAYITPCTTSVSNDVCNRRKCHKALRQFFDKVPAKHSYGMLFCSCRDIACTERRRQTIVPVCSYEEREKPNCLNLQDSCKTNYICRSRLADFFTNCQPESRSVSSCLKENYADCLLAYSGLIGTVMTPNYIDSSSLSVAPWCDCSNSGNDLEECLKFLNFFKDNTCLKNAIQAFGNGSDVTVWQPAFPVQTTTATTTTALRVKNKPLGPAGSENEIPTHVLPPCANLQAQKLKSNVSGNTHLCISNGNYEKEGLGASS
Assay: Elk1 reporter-gene (luciferase) assay in cells expressing GFRα1-RET
Settings: MG87 murine fibroblasts stably transfected with PathDetect Elk-1, GFRα1 and RET, 6 concentrations, agonist/activator activity
pEC50: −log10 of the molar value.
Examples of compounds with documented pEC50 follow.

compound=COC(=O)c1ccc(C2CCN(S(=O)(=O)c3ccc(OC)c(N4[C@@H]5CC[C@H]4CN(C(=O)c4ccc(F)cc4Cl)C5)c3)CC2)cc1 result="> 6.00"
compound="CCCN(C)S(=O)(=O)c1ccc(OC)c(N2CCN(C(=O)c3ccc(F)cc3C(F)(F)F)CC2C)c1 (racemic)" result="5.00 to 6.00"
compound=C[C@H]1CN(C(=O)c2ccc(F)cc2Cl)CCN1c1cc(S(=O)(=O)NC(C)(C)C)cc(Cl)c1O result="> 6.00"
compound=CCc1cc(S(=O)(=O)N2CCC(c3ccccc3)CC2)cc(N2[C@@H]3CC[C@H]2CN(C(=O)c2ccc(F)cc2Cl)C3)c1O result="> 6.00"
compound=O=C(c1ccc(F)cc1Cl)N1C[C@H]2CC[C@@H](C1)N2c1cc(S(=O)(=O)N2CCC(c3ccccc3)CC2)cc(Cl)c1O result="> 6.00"
compound=CC(C)(C)NS(=O)(=O)c1cc(F)c(O)c(N2[C@@H]3CC[C@H]2CN(C(=O)c2ccc(F)cc2Cl)C3)c1 result="> 6.00"

# input Endpoint output: pEC50 of COc1ccc(S(=O)(=O)N2CCC(N(C)c3ccccc3)C2)cc1N1C2CCC1CN(C(=O)c1ccc(F)cc1Cl)C2 (racemic) . Value?
# output > 6.00

# input Field entry: "CN(C)c1ccc(S(=O)(=O)N2CCC(c3ccccc3)CC2)cc1N1[C@@H]2CC[C@H]1CN(C(=O)c1ccc(F)cc1Cl)C2"
# output > 6.00

# input Field entry: "COc1ccc(S(=O)(=O)NC(C)(C)C)cc1N1[C@@H]2CC[C@H]1CN(C(=O)c1ccc(F)cc1Cl)C2"
# output 5.00 to 6.00

# input Field entry: "COc1ccc(S(=O)(=O)NC(C)(C)C)cc1N1[C@@H]2CC[C@H]1CN(C(=O)c1cc(F)c(F)cc1Cl)C2"
# output > 6.00

# input Field entry: "C[C@@H]1CN(C(=O)c2ccc(F)cc2Cl)CCN1c1cc(S(=O)(=O)NC(C)(C)C)cc(Cl)c1O"
# output > 6.00

# input Field entry: "Cc1c(Cl)cc(S(=O)(=O)NC(C)(C)C)cc1N1[C@@H]2CC[C@H]1CN(C(=O)c1ccc(F)cc1Cl)C2"
# output > 6.00

# input Field entry: "O=C(c1ccc(F)cc1Cl)N1C[C@H]2CC[C@@H](C1)N2c1cc(S(=O)(=O)N2CCN(CCc3ccc(Cl)cc3)CC2)cc2c1OCC2"
# output > 6.00
